target: CtVrg4 (Vrg4 from Chaetomium thermophilum) (Thermochaetoides thermophila, UniProt G0S534); construct: full length, 385 residues, N-terminal 12-His tag, about 37 kDa, expressed in S. cerevisiae FGY217, purified in DDM; experiment: competition of [3H]GMP uptake into proteoliposomes
Sequence (G0S534 entry or part of it): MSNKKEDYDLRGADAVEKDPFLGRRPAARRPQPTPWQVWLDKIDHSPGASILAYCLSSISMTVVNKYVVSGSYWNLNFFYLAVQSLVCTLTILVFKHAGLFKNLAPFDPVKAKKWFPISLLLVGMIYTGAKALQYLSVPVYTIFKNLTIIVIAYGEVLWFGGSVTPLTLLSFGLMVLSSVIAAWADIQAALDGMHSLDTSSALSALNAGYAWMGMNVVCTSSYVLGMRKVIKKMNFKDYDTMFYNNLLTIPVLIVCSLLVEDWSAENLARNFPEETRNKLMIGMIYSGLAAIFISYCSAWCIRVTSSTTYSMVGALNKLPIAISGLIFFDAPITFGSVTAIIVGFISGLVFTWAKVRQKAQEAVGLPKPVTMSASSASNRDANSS
measured-quantity: IC50 (µM)
Numbers only, in µM.

Enquiry: Please give the measured IC50 for this compound: `Nc1nc2c(ncn2[C@@H]2O[C@H](COP(=O)(O)OP(=O)(O)O[C@H]3O[C@H](CO)[C@@H](O)[C@H](O)[C@@H]3O)[C@@H](O)[C@H]2O)c(=O)[nH]1`
Return: 25.5

----------
Lab note: Kd readings collected with CtVrg4 (Vrg4 from Chaetomium thermophilum) (Thermochaetoides thermophila) for the following compounds.
Answers are plain numbers, in µM.

Nc1nc2c(ncn2[C@@H]2O[C@H](COP(=O)(O)O)[C@@H](O)[C@H]2O)c(=O)[nH]1: 143

Consider the record given below.
Enquiry: Test system CtVrg4 (Vrg4 from Chaetomium thermophilum) (Thermochaetoides thermophila); read-out Kd; what value for `Nc1nc2c(ncn2[C@@H]2O[C@H](COP(=O)(O)OP(=O)(O)O[C@H]3O[C@H](CO)[C@@H](O)[C@H](O)[C@@H]3O)[C@@H](O)[C@H]2O)c(=O)[nH]1` ?
Return: 74.3

----------
target: CtVrg4Δ31 (Thermochaetoides thermophila); construct: C-terminal truncation lacking the last 31 residues (Golgi retrieval signal), residues 1-354, N-terminal 12-His tag, expressed in S. cerevisiae FGY217, purified in DDM; experiment: competition of [3H]GMP uptake into proteoliposomes
Sequence (G0S534 entry or part of it, stated change not applied): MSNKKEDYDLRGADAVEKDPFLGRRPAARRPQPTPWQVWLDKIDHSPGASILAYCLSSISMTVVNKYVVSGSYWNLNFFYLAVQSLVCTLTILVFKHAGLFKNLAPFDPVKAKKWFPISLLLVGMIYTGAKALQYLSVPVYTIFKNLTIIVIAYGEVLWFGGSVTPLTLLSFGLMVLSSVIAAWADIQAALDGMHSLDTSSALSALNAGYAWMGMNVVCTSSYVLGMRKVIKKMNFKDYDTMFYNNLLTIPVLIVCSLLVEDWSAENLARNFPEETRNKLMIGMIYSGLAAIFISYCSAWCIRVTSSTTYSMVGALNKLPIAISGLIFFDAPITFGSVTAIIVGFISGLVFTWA
measured-quantity: pIC50
Answers are plain numbers, as −log10 of the molar value.

Enquiry: Please give the measured pIC50 for this molecule: `Nc1nc2c(ncn2[C@@H]2O[C@H](COP(=O)(O)OP(=O)(O)O[C@H]3O[C@H](CO)[C@@H](O)[C@H](O)[C@@H]3O)[C@@H](O)[C@H]2O)c(=O)[nH]1`
Return: 4.32

----------
biological target: CtVrg4 (Vrg4 from Chaetomium thermophilum) (Thermochaetoides thermophila, UniProt G0S534, Y310F); construct: full length, 385 residues, N-terminal 12-His tag, about 37 kDa, expressed in S. cerevisiae FGY217, purified in DDM; assay: competition of [3H]GMP uptake into proteoliposomes
Sequence (G0S534 entry or part of it Y310F): as the sequence (G0S534 entry or part of it) above, with Y310F counted along it
measured-quantity: pIC50
Give bare numbers, as −log10 of the molar value.

Enquiry: Please give the measured pIC50 for this molecule: `Nc1nc2c(ncn2[C@@H]2O[C@H](COP(=O)(O)OP(=O)(O)O[C@H]3O[C@H](CO)[C@@H](O)[C@H](O)[C@@H]3O)[C@@H](O)[C@H]2O)c(=O)[nH]1`
Return: 4.33

----------
Record form. Attribute: Kd. Fill in for each entry.
target: CtVrg4 (Vrg4 from Chaetomium thermophilum) (Thermochaetoides thermophila, UniProt G0S534, Y310F); construct: full length, 385 residues, N-terminal 12-His tag, about 37 kDa, expressed in S. cerevisiae FGY217, purified in DDM; test: thermal shift titration (Tycho NT.[…])
Give bare numbers, in µM.

Nc1nc2c(ncn2[C@@H]2O[C@H](COP(=O)(O)O)[C@@H](O)[C@H]2O)c(=O)[nH]1 [GMP]: 139

Enquiry: Please give the measured Kd for this molecule: Nc1nc2c(ncn2[C@@H]2O[C@H](COP(=O)(O)OP(=O)(O)O[C@H]3O[C@H](CO)[C@@H](O)[C@H](O)[C@@H]3O)[C@@H](O)[C@H]2O)c(=O)[nH]1 [GDP-mannose]
Return: 130
